Values were extracted from patent US20250171423A1.

measuredTarget: Human complement C1s enzyme (Homo sapiens)
Construct: purified from human serum, Complement Technology, Inc; purchased Complement Technology, Inc; host or cells: human serum
Sequence (P09871 438-688 limits assumed): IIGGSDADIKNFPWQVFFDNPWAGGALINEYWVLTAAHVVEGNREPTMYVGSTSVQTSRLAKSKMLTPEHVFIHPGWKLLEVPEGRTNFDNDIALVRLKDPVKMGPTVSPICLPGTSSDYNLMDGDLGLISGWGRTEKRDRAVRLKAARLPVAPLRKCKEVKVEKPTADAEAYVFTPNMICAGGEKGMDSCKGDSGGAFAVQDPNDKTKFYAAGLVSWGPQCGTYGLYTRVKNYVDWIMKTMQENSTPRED
Sequence (P09871 16-437 partner limits assumed): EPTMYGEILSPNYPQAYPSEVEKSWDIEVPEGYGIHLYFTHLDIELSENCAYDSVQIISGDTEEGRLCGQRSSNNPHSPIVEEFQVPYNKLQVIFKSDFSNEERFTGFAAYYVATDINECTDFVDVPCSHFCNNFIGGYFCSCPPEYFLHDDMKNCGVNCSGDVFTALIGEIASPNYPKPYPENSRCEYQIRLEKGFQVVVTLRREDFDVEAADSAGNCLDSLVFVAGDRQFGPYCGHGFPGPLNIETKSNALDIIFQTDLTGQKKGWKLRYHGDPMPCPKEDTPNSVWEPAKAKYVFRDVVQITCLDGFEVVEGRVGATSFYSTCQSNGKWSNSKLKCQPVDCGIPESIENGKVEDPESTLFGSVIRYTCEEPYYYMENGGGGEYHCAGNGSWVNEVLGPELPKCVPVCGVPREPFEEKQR
methodDescription: Human C1s Enzyme Assay
Type: biochemical
conditionNotes: human C1s 1.16 nM, 5 min preincubation, substrate Z-L-Lys-SBzl 100 μM, A405; read-out: C1s Protease Activity
measureName: IC50

A selection of reference data follows.
> print(dat)
                                   compound  experimentalvalue
1  C[C@@]12C[C@@H]1N(C(=O)CNC(=O)c1ccc(Oc3ccccc3)cc1)[C@H](C(=O)NCc1cc(/C(N)=N/[N+](=O)[O-])cs1)C2 [Compound 11]          > 1000 nM
2  N=C(N)c1csc(CNC(=O)[C@@H]2C[C@@H](C(F)(F)F)CN2C(=O)CNC(=O)CCCOc2ccccc2)c1 [Compound 60]           < 100 nM

Please find the next compound below.
Query block: Annotate the compound CC(C)O[C@@H]1C[C@@H](C(=O)N[C@H](C)c2cc(C(=N)N)cs2)N(C(=O)CNC(=O)CCCOc2ccccc2)C1 [Compound 166] with its measured IC50.
Result block: < 100 nM

----------
measuredTarget: Human complement C1s enzyme (Homo sapiens)
Construct: purified from human serum, Complement Technology, Inc; purchased Complement Technology, Inc; host or cells: human serum
methodDescription: Human C1s Enzyme Assay
Type: biochemical
conditionNotes: human C1s 1.16 nM, 5 min preincubation, substrate Z-L-Lys-SBzl 100 μM, A405; read-out: C1s Protease Activity
Counter-ions that a name gives are not always drawn.
measureName: IC50

A selection of reference data follows.
> print(dat)
                                   molecule  experimentalvalue
1  C[C@@]12C[C@@H]1N(C(=O)CNC(=O)CCCOc1ccc(C(=O)O)cc1)[C@H](C(=O)NCc1cc(C(=N)N)cs1)C2        0.1 to 1 µM
2  C[C@H](O)[C@H](O)[C@@H](O)[C@@H](O)CNCC(=O)N1[C@H]2C[C@@]2(C)C[C@H]1C(=O)NCc1cc(C(=N)N)cs1 [Compound 24, hydrochloride]             > 1 µM

Please find the next molecule below.
Query block: Annotate the molecule N=C(N)c1csc(CNC(=O)[C@@H]2C[C@]3(CN2C(=O)CNC(=O)CCCOc2ccccc2)CC3(F)F)c1 with its measured IC50.
Result block: < 0.1 µM
